experiment: collision cross section (TIMS, N2 drift gas) of the primary ion; higher = larger gas-phase ion size; settings: ionization mode: ESI-; ion species: [M-H]-
Returns one of true (1) or false (0); true (1) when collision cross section is >= 200 Å².

Examples with answers:
{"compound.string": "CNC(=O)c1cc(Oc2ccc(NC(=O)Nc3ccc(Cl)c(C(F)(F)F)c3)cc2)ccn1", "group.label": "true (1)"}
{"compound.string": "O=S(=O)(O)C(F)(F)C(F)(F)C(F)(F)C(F)(F)F", "group.label": "false (0)"}
{"compound.string": "CCOC(=O)c1ccc(O)cc1", "group.label": "false (0)"}

Below: the item to evaluate.
Check this compound for collision cross section at or above 200 Å²: `Oc1cc(Cl)ccc1Oc1ccc(Cl)cc1`
false (0)

###

assay: collision cross section (TIMS, N2 drift gas) of the primary ion; higher = larger gas-phase ion size; conditions: ionization mode: ESI+; ion species: [M+H]+
readout.kind: collision cross section (Å²)
Numbers only, in Å².

Check out these entries, answers already filled in.
{"molecule": "CNC(=O)Oc1cc(C)c(S(C)(=O)=O)c(C)c1 [Methiocarb sulfone]", "measure.unit": "Å²", "collision cross section": 162.89}
{"molecule": "CC1(C(=O)Nc2ccc(O)c(Cl)c2Cl)CCCCC1 [Fenhexamid]", "measure.unit": "Å²", "collision cross section": 166.46}
{"molecule": "CCNc1nc(O)nc(NC(C)C)n1 [2-Hydroxyatrazine]", "measure.unit": "Å²", "collision cross section": 147.52}
{"molecule": "CCCCCOC(=O)c1ccccc1C(=O)OCCCCC [Di-n-pentylphthalate]", "measure.unit": "Å²", "collision cross section": 182.77}

Let's switch to this molecule now.
# return recorded collision cross section for entry C[Si](Cn1cncn1)(c1ccc(F)cc1)c1ccc(F)cc1 [Flusilazole]
176.25

###

test: reversed-phase LC retention time (C18, 15 min MeOH gradient); higher = more hydrophobic / later elution; conditions: ionization mode: ESI-; ion species: [M-H]-
readout.kind: reversed-phase LC retention time (min)
Give bare numbers, in min.

# count of solved cases: 5
{"compound": "Oc1c(Cl)cc(-c2ccc(Cl)cc2)cc1Cl [4-Hydroxy-3,4',5-trichlorobiphenyl]", "reversed-phase LC retention time, min": 15.5}
{"compound": "CC(C)C1C2CCC1c1c(NC(=O)c3cn(C)nc3C(F)F)cccc12 (centres undefined)", "reversed-phase LC retention time, min": 16.6}
{"compound": "Cc1cccc(C)c1NC(=O)CS(=O)(=O)O", "reversed-phase LC retention time, min": 7.04}
{"compound": "O=C(Nc1ccc(F)cc1F)c1cccnc1Oc1cccc(C(F)(F)F)c1", "reversed-phase LC retention time, min": 16.7}
{"compound": "BrC1CCC(Br)C(Br)CCC(Br)C(Br)CCC1Br (centres undefined) [Hexabromocyclododecane (two peaks)]", "reversed-phase LC retention time, min": 18.9}

Give measured reversed-phase LC retention time for every item shown.
1. CC(=NC#N)N(C)Cc1ccc(Cl)nc1
2. CCCCc1nc(Cl)c(CO)n1Cc1ccc(-c2ccccc2-c2nn[nH]n2)cc1
3. COCCN(C(=O)CS(=O)(=O)O)c1c(C)cccc1C
4. N#C/N=C1/SCCN1Cc1ccc(Cl)nc1

1: 9.38; 2: 13; 3: 9.95; 4: 10

###

For each entry below, report its reversed-phase LC retention time value.
assay: reversed-phase LC retention time (C18, 15 min MeOH gradient); higher = more hydrophobic / later elution; details: ionization mode: ESI+; ion species: [M+H]+
One number for each entry, in min.

{"molecule": "CCC(=O)OCC(=O)C1(OC(=O)CC)C(C)CC2C3CCC4=CC(=O)C=CC4(C)C3(F)C(O)CC21C (stereo unspecified) [Betamethasone dipropionate]", "measure.unit": "min", "reversed-phase LC retention time": 15.7}
{"molecule": "COCCc1ccc(OCC(O)CNC(C)C)cc1 (stereo unspecified)", "measure.unit": "min", "reversed-phase LC retention time": 9.39}
{"molecule": "CCc1cccc(C)c1NC(=O)CS(=O)(=O)O", "measure.unit": "min", "reversed-phase LC retention time": 8.83}
{"molecule": "c1ccc2c(c1)[nH]c1ccncc12", "measure.unit": "min", "reversed-phase LC retention time": 7.64}
{"molecule": "CCCCC(CC)COC(=O)CC(C(=O)OCC(CC)CCCC)S(=O)(=O)O (stereo unspecified) [Dioctylsulfosuccinate]", "measure.unit": "min", "reversed-phase LC retention time": 17.1}

Give one value of reversed-phase LC retention time per listed molecule.
1. CC[C@H]1OC(=O)[C@H](C)[C@@H](O[C@H]2C[C@@](C)(OC)[C@@H](O)[C@H](C)O2)[C@H](C)[C@@H](O[C@@H]2O[C@H](C)C[C@H](N(C)C)[C@H]2O)[C@](C)(O)C[C@@H](C)C(=NOCOCCOC)[C@H](C)[C@@H](O)[C@]1(C)O
2. CC1(C(=O)Nc2ccc(O)c(Cl)c2Cl)CCCCC1

[14.1, 14.8]

Need reversed-phase LC retention time for each of these molecules.
1. CC(Oc1ccc(Oc2ncc(C(F)(F)F)cc2Cl)cc1)C(=O)O (stereo unspecified)
2. CC(=O)[C@@]1(O)CC[C@H]2[C@@H]3C=C(Cl)C4=CC(=O)[C@@H]5C[C@@H]5[C@]4(C)[C@H]3CC[C@@]21C
3. CNC(=O)Oc1cc(C)c(S(C)(=O)=O)c(C)c1
4. CCC1OC(=O)C(C)C(OC2CC(C)(OC)C(O)C(C)O2)C(C)C(OC2OC(C)CC(N(C)C)C2O)C(C)(OC)CC(C)C(=O)C(C)C(O)C1(C)O (stereo unspecified)
5. CC(=O)O[C@]1(C(C)=O)CC[C@H]2[C@@H]3C[C@H](C)C4=CC(=O)CC[C@]4(C)[C@H]3CC[C@@]21C [Medroxyprogesteroneacetate]

[15.5, 14.6, 9.59, 13.9, 15.4]

# return reversed-phase LC retention time for each item in the list
1. CNC(=O)CSP(=S)(OC)OC [Dimethoate]
2. CC(C)CCCCOC(=O)c1ccccc1C(=O)OCCCCC(C)C [Diisoheptyl phthalate]
3. Nc1ccc(-c2ccc(N)cc2)cc1
4. CCCc1nc(C)c2c(=O)nc(-c3cc(S(=O)(=O)N4CCN(CC)CC4)ccc3OCC)[nH]n12

[9.08, 18.6, 3.98, 12]
